- Assay notes: Plasma pharmacokinetics in mouse
- Assay type: in vivo, female Balb/c mouse
- Measurement context: female, Balb/c, mouse, plasma, 3 mg/kg; IV 3 mg free base/kg, single dose
- Experimental: To investigate the relationship between anticryptosporidial activity and systemic exposure the plasma pharmacokinetics for NZ-369 were measured. […] The pharmacokinetics of NZ-369 following single intravenous (IV) and oral administration (PO) at 3 and 10 mg free base/kg respectively to the female Balb/c mouse.
Measurement kind: half-life (h)

[[record]]
compound = "CNC(=O)C(C)c1ccc(Oc2nc3ccc(Cl)cc3s2)cc1 (stereo not shown)"
measurement_kind = "half-life"
assay_value = 3.4


---

This listing pairs molecules with measured pIC50.
- Assay notes: in vitro
- Measurement context: human
pIC50: −log10 of the molar value.
Measurement kind: pIC50

[[record]]
molecule = "CC(C(=O)NC1COC1)c1ccc(Oc2nc3ccc(Cl)cc3s2)cc1 (centres unmarked) [NZ-543]"
measurement_kind = "pIC50"
assay_value = "< 4.00"

[[record]]
molecule = "CC(C(=O)N1CCN(C)CC1)c1ccc(Oc2nc3ccc(Cl)cc3s2)cc1 (centres unmarked) [NZ-366]"
measurement_kind = "pIC50"
assay_value = 4.32

[[record]]
molecule = "CC(C(=O)N1CCOCC1)c1ccc(Oc2nc3ccc(Cl)cc3s2)cc1 (centres unmarked) [NZ-365]"
measurement_kind = "pIC50"
assay_value = "< 4.00"

[[record]]
molecule = "CC(C(=O)NC1CCC1)c1ccc(Oc2nc3ccc(Cl)cc3s2)cc1 (centres unmarked) [NZ-539]"
measurement_kind = "pIC50"
assay_value = "< 4.00"

[[record]]
molecule = "COCCNC(=O)C(C)c1ccc(Oc2nc3ccc(Cl)cc3s2)cc1 (centres unmarked) [NZ-541]"
measurement_kind = "pIC50"
assay_value = "< 4.00"


---

- Test system: human fibroblast
- Assay notes: in vitro
- Measurement context: human
Known concentrations at which not toxic, human fibroblast cytotoxicity testing of a selection of compounds
Measurement kind: concentrations at which not toxic, human fibroblast cytotoxicity testing

[[record]]
compound = "CC(C(=O)NCC(O)CO)c1ccc(Oc2cnc3cc(Cl)ccc3n2)cc1 (centres unmarked) [NZ-534]"
assay_value = "≥ 100 µM"

[[record]]
compound = "O=C(O)C(O)c1ccc(Oc2nc3ccc(Cl)cc3s2)cc1 (centres unmarked) [NZ-337]"
assay_value = "≥ 100 µM"

[[record]]
compound = "COC(=O)C(O)c1ccc(Oc2nc3ccc(Cl)cc3s2)cc1 (centres unmarked) [NZ-336]"
assay_value = "50 to 100 µM"

[[record]]
compound = "O=C(O)Cc1ccc(Oc2nc3cc(F)c(F)cc3s2)cc1F [NZ-440]"
assay_value = "≥ 100 µM"

[[record]]
compound = "O=C(O)Cc1ccc(Oc2cnc3cc(Cl)ccc3n2)cc1 [NZ-298]"
assay_value = "≥ 100 µM"


---

- Assay notes: Plasma pharmacokinetics in mouse
- Assay type: in vivo, female Balb/c mouse
- Measurement context: female, Balb/c, mouse, plasma, 10 mg/kg; printed in the IV column; PO 10 vs IV 3 mg free base/kg
Measurement kind: bioavailability

[[record]]
compound = "CNC(=O)C(C)c1ccc(Oc2nc3ccc(Cl)cc3s2)cc1 (stereo not shown)"
measurement_kind = "bioavailability"
assay_value = "78.8%"


---

- System: human fibroblast
- Assay notes: in vitro
Quick list: concentrations at which not toxic, human fibroblast cytotoxicity testing per entry.
Measurement kind: concentrations at which not toxic, human fibroblast cytotoxicity testing

[[record]]
smiles_text = "CC(C)NC(=O)Nc1ccc(Oc2nc3cc(Cl)ccc3s2)cc1"
assay_value = "≥ 100 µM"

[[record]]
smiles_text = "O=C(O)Cc1ccc(Oc2nc3ccc(F)cc3s2)cc1"
assay_value = "≥ 100 µM"

[[record]]
smiles_text = "COC(=O)Cc1ccc(Oc2nc3cc(F)c(F)cc3s2)cc1"
assay_value = "≥ 100 µM"

[[record]]
smiles_text = "CC(C)ONC(=O)COc1ccc(Oc2cnc3cc(Cl)ccc3n2)cc1"
assay_value = "≥ 100 µM"

[[record]]
smiles_text = "CNC(=O)Cc1ccc(Oc2nc3cc(F)c(F)cc3s2)cc1F"
assay_value = "≥ 100 µM"

[[record]]
smiles_text = "CC(C)NC(=O)Nc1ccc(Oc2nc3ccc(C#N)cc3s2)cc1"
assay_value = "≥ 100 µM"

[[record]]
smiles_text = "CC(C)NC(=O)Cc1ccc(Oc2nc3ccc(F)cc3s2)cc1O"
assay_value = "≥ 100 µM"

[[record]]
smiles_text = "CON(C)C(=O)COc1ccc(Oc2cnc3cc(Cl)ccc3n2)cc1"
assay_value = "≥ 100 µM"

[[record]]
smiles_text = "CNC(=O)Cc1ccc(Oc2nc3ccc(Cl)cc3s2)cc1OC"
assay_value = "≥ 100 µM"

[[record]]
smiles_text = "CONC(=O)COc1ccc(Oc2cnc3cc(Cl)ccc3n2)cc1"
assay_value = "≥ 100 µM"

[[record]]
smiles_text = "CC(C)NC(=O)Nc1ccc(Oc2nc3ccc(F)cc3s2)cc1"
assay_value = "≥ 100 µM"

[[record]]
smiles_text = "CC(C)(Oc1ccc(Oc2cnc3cc(Cl)ccc3n2)cc1)C(=O)O"
assay_value = "≥ 100 µM"


Data provenance is patent US11083717B2.
